target desc: T1, human CCL17 (human, UniProt Q92583 24-94)
T1 construct: Biotinylated in the Fab ELISAs; also called huCCL17; Bt-huCCL17
T1 sequence: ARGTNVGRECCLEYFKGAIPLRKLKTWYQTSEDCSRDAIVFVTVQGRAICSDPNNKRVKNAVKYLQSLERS
protocol text: MSD-SEA; affinity for human CCL17 against that for cyno CCL17

{"binder": "C17B242 (antibody, V domains shown, Full IgG1, kappa) VH: EVQLVQSGAEVKKPGESLKISCKGSGYSFTSYWIGWVRQMPGKGLEWMGIIDPSDSDTRYSPSFQGQVTISADKSISTAYLQWSSLKASDTAMYYCARVGPADVWDSFDYWGQGTLVTVSS VL: DIVMTQSPDSLAVSLGERATINCKSSQSVLFSHDNLNTLAWYQQKPGQPPKLLIYHASTRESGVPDRFSGSGSGTDFTLTISSLQAEDVAVYYCQQYYAVPQTFGQGTKVEIK", "Fold binding human/cyno CCL17 [fold]": 2.3}
